Test system: MDA-MB-231 breast
Experiment: NCI tumour cell line growth inhibition, 48 h
Value kind: GI50

Consider `C[C@]12CC[C@@H]3c4ccc(O)cc4CC[C@H]3[C@@H]1CC[C@@H]2NS(=O)(=O)c1cccc(C(F)(F)F)c1` . Its measured GI50 is 2390 nM

---

# TGI annotations
Test system: EKVX NSCLC
Assay: NCI tumour cell line growth inhibition, 48 h

Examples with their reported TGI follow.
- O=c1c2c(c1=O)C1(SCCCS1)c1cc(Cl)ccc1O2: > 100 µM
- COc1ccc(-c2cc(-c3ccc(Nc4ccnc5cc(Cl)ccc45)cc3)nc(N)c2C#N)cc1: > 100 µM
- CCc1ccccc1N1CCN(C(=O)c2cc(OC)c(OC)c(OC)c2)CC1: 20.9 µM
- C#CCOCn1ccc(=O)[nH]c1=O: > 100 µM
- C=CC(C)(C)C(=C)C(=O)N(C)c1ccccc1I: > 100 µM

Now for another entry.
Note to self: TGI of `COc1cc(Cl)cc(N(O)C(C)=O)c1OCc1ccccc1` with EKVX NSCLC was > 100 µM

---

System: SW-620 colon
Assay: NCI tumour cell line growth inhibition, 48 h
Value kind: TGI

- O=C1NCCCC12CCCNC2=O: > 100 µM

Consider `C#CCOCn1ccc(=O)[nH]c1=O` . Its measured TGI is > 100 µM

Consider `COc1ccc(-c2cc(-c3ccccc3)nc(N3CCN(CCNc4ccnc5cc(Cl)ccc45)CC3)n2)cc1` . Its measured TGI is 3.47 µM

Consider `Cc1cc(C)nc(NC(=S)Nc2ccccc2Cl)c1` . Its measured TGI is > 100 µM

Consider `CC(=O)CCC(=O)C(=[N+]=[N-])S(=O)(=O)c1ccccc1` . Its measured TGI is > 100 µM

Consider COc1ccc(C(Cc2cc(OC)c(OC)c(OC)c2)C(=O)O)cc1 (stereo not given) . Its measured TGI is > 100 µM

Consider `O=c1c(Sc2c(O)c3ccccc3c3ccccc3c2=O)c(O)c2ccccc2c2ccccc12` . Its measured TGI is > 100 µM

Consider `COc1ccc(C/C(C)=C(\c2ccc(OCCN3CCOCC3)cc2)c2ccc(OC(=O)Cc3ccccc3)cc2)cc1` . Its measured TGI is 1.8 µM

Consider `CSc1nc(-c2ccc(C)cc2)c(C#N)c(=O)[nH]1` . Its measured TGI is > 100 µM

Consider `O=C(CCCCCCSc1nc(-c2ccccc2)cc(-c2ccccc2)n1)NO` . Its measured TGI is 12.8 µM

Consider COC(=O)C12OC(C)(C(CC(=O)OC(C)(C)C)C1=O)C1C(=O)N(c3ccccc3)C(=O)C12 (stereo not given) . Its measured TGI is > 100 µM

---

Test system: SN12C renal
Assay: NCI tumour cell line growth inhibition, 48 h; in the data active = GI50 below about 0.43 µM; inactive = the rest
Form entry, call: pick from active, inactive

# count of solved cases: 5
• COc1ccc(-c2nnc(SCC(=O)Nc3ccc(/C(C)=N\O)cc3)n2-c2ccccc2)cc1OC = inactive
• O=C1c2ccc3c4c5ccc(c24)C(=O)N1CCCOCCCCOCCCNCc1ccc(cc1)CNCCCOCCCCOCCCN(C3=O)C5=O = inactive
• CCc1cccc2c3c(sc12)C(c1ccc(Cl)cc1)C(C#N)=C(N)O3 (stereo unspecified) = inactive
• N#Cc1cccc(C(=O)Nc2cccc(NC(=O)c3cccc(C#N)c3)c2)c1 = inactive
• C[C@]12CC[C@@H]3c4ccc(O)cc4CC[C@H]3[C@@H]1CC[C@@H]2NS(=O)(=O)c1cccc(C(F)(F)F)c1 = inactive

Now look at this one.
QUERY: Which outcome did this test record for the compound `C=CC1=C[C@@H]2[C@@H]3O[C@]4(CC[C@H](O4)[C@@H](C)C[C@@H](O)C3=O)C[C@H](O)C3=NCC[C@@]32CC1` ?
RESULT: active

---

Test system: MOLT-4 leukemia
Assay: NCI tumour cell line growth inhibition, 48 h
Value kind: log10 of TGI (log10 of the value in µM)
In our notation, the value equals log10 of TGI in µM.

Examples with their reported log10 of TGI follow.
* CC(C)(O)C1CCC(Nc2ccc3ncc(-c4cccc(C(F)(F)F)c4)n3n2)CC1 (configuration not stated) | 0.85
* COP(=O)(OC)C(=NCc1ccccc1)NNc1ccc([N+](=O)[O-])cc1 | 1.87
* c1ccc(-c2cs[s+]c2)cc1 | 1.93
* C=CCNCCCN1C(=O)c2ccc3c4c(ccc(c24)C1=O)C(=O)N(CCCNCC=C)C3=O | 0.23
* O=C(CCCCCCSc1nc(-c2ccccc2)cc(-c2ccccc2)n1)NO | 0.52
* COc1cc(NCc2ccc3nc(-c4ccccc4)c(N)nc3c2)cc(OC)c1OC | 1.77
* O=C1OC(CC(=O)c2ccc(Cl)cc2Cl)C(Cl)=C1Cl (configuration not stated) | 1.82
* COc1ccc2c(c1)c(-c1nc(-c3c[nH]c4ncccc34)cs1)cn2CCCCN1CCOCC1 | 0.59

Consider `Cc1ccc2c(c1C)-c1c(ccc(C)c1C)C(=O)C2=O` . Its measured log10 of TGI is -0.16

Consider CC(CN1CCN(C)CC1)CN1c2ccccc2Sc2ccc(C(F)(F)F)cc21 (configuration not stated) . Its measured log10 of TGI is 0.68

---

System: SK-OV-3 ovarian
Test: NCI tumour cell line growth inhibition, 48 h
Value kind: GI50

Examples with their reported GI50 follow.
- C[C@]12CC[C@@H]3c4ccc(O)cc4CC[C@H]3[C@@H]1CC[C@@H]2NS(=O)(=O)c1cccc(C(F)(F)F)c1: 4.78 µM
- COc1ccc(C(=O)/C=C/c2c(C(F)(F)F)nc3sccn23)cc1OC: 3.41 µM

Consider `COc1ccc(-c2nnc(SCC(=O)Nc3ccc(/C(C)=N\O)cc3)n2-c2ccccc2)cc1OC` . Its measured GI50 is 2.73 µM

Consider `CN(c1ccc(NC(=O)Nc2ccc(OC(F)(F)F)cc2)cc1)c1ccnc(Nc2cccc(S(N)(=O)=O)c2)n1` . Its measured GI50 is 4.65 µM

Consider `CN1CCN(c2nc(NCCCCNc3ccnc4cc(Cl)ccc34)c3ccccc3n2)CC1` . Its measured GI50 is 18 µM

---

Tested on: MCF7 breast
Experiment: NCI tumour cell line growth inhibition, 48 h
Value kind: TGI

* OCC1OC(Oc2cc(O)cc(/C=C/c3ccc(O)cc3)c2)C(O)C(O)C1O (stereo not given) | > 100 µM
* C(=C\c1nccs1)/c1cccc(/C=C/c2nccs2)n1 | > 50 µM
* Cc1cnc(/N=c2\sc(C)cn2-c2ncc(C)s2)s1 | > 100 µM
* Cc1ccc(/C=C2/SC(Nc3nc(-c4nc(NC5=NC(=O)/C(=C\c6ccc(C)cc6)S5)sc4C)c(C)s3)=NC2=O)cc1 | > 50 µM
* CCc1cccc2c3c(sc12)C(c1ccc(Cl)cc1)C(C#N)=C(N)O3 (stereo not given) | 4.66 µM
* Cc1nc2cnc3cc(F)c(-c4ccc(Oc5ncccn5)cc4Cl)cc3c2n1[C@H]1CCN(C(=O)CO)C[C@@H]1F | > 58.2 µM
* O=C(O)C(O)Cc1ccccn1 (stereo not given) | > 100 µM
* C=CCOC1=C(OCC=C)C(C2COC(C)(C)O2)OC1=O (stereo not given) | > 100 µM

Consider `COc1ccn2c(C(C)=O)cc(C(=O)c3ccc4c(c3)Sc3ccccc3N4)c2c1` . Its measured TGI is > 100 µM

Consider `CN(c1ccc(NC(=O)Nc2ccc(OC(F)(F)F)cc2)cc1)c1ccnc(Nc2cccc(S(N)(=O)=O)c2)n1` . Its measured TGI is 5.56 µM

---

Tested on: RPMI-8226 leukemia
Experiment: NCI tumour cell line growth inhibition, 48 h
Value kind: log10(TGI) (log10 of the value in µM)
In our notation, the value equals log10 of TGI in µM.

Note to self: log10(TGI) of `COc1ccc(C/C(C)=C(\c2ccc(OCCN3CCOCC3)cc2)c2ccc(OC(=O)Cc3ccccc3)cc2)cc1` with RPMI-8226 leukemia was 0.12

Note to self: log10(TGI) of C=CCN(N=O)C(=O)N(CCCC(NC(C)=O)C(=O)NCc1ccccc1)Cc1ccccc1 (stereo not given) with RPMI-8226 leukemia was 1.77

Note to self: log10(TGI) of CC(CN1CCN(C)CC1)CN1c2ccccc2Sc2ccc(C(F)(F)F)cc21 (stereo not given) with RPMI-8226 leukemia was 0.74

Note to self: log10(TGI) of `COc1ccc(-c2cc(-c3ccccc3)nc(N3CCN(CCNc4ccnc5cc(Cl)ccc45)CC3)n2)cc1` with RPMI-8226 leukemia was 0.66

Note to self: log10(TGI) of `CN(c1ccc(NC(=O)Nc2ccc(OC(F)(F)F)cc2)cc1)c1ccnc(Nc2cccc(S(N)(=O)=O)c2)n1` with RPMI-8226 leukemia was 1.00
